experimental-target: Estrogen receptor (Homo sapiens) (UniProt P03372)
Sequence (P03372 whole entry, looked up): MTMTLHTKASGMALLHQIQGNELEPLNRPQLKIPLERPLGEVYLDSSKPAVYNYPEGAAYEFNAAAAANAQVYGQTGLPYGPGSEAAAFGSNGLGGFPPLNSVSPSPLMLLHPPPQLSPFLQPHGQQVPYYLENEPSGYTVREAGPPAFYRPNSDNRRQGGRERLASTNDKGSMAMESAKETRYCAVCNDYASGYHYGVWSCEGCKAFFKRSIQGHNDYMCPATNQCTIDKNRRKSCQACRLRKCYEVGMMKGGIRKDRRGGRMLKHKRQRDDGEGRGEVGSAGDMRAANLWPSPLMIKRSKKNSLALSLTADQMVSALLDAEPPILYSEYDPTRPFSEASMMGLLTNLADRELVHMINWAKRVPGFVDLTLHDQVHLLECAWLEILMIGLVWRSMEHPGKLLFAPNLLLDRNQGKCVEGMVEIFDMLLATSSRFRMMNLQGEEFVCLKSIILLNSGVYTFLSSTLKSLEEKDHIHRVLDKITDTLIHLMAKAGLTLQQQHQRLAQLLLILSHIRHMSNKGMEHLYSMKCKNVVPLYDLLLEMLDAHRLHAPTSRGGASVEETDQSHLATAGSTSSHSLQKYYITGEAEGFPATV
procedure-details: qHTS assay to identify small molecule agonists of the estrogen receptor alpha (ER-alpha) signaling pathway using the BG1 cell line (AID 743079); note: nearly all actives have a fitted effect of over 20% in size
conditions-used: BG1Luc4E2 cells, ERE-luciferase agonist, 22 h; series mostly up to 70.3 µM
Records with an inconclusive call do not appear. Active and inactive are the calls of the source. Calls come from the whole dose curve; as a rule, active = well fitted activation curve with a large enough effect in the repeat runs; inconclusive = weak or mixed curves, or effect the other way; inactive = no such curve, though single readings can be large or run the other way.
The categories you may choose from are active, inactive

Answered examples (5):
>>> category_label("CCC(=O)Nc1ccc(O)cc1")
"inactive"
>>> category_label("CCCCCCOc1ccc(N)cc1")
"active"
>>> category_label("O=C1C=CC(=O)O1")
"inactive"
>>> category_label("CC(C)S")
"inactive"
>>> category_label("Cc1nnc(SCC2=C(C(=O)O)N3C(=O)[C@@H](NC(=O)Cn4cnnn4)[C@H]3SC2)s1")
"inactive"

Returns: the outcome recorded for CNCCC(Oc1ccccc1OC)c1ccccc1 (stereo not drawn) in this assay. inactive

Per the assay record, what outcome was assigned to O=C1CCCc2ccccc21 ? inactive

In this assay, the call recorded for CCCNC(C)C(=O)Nc1c(C)csc1C(=O)OC (stereo not drawn) was what? inactive

* * *

Test system: thyroid hormone receptor (rat, GH3 cells)
procedure-details: qHTS assay to identify small molecule agonists of the thyroid receptor (TR) signaling pathway (AID 743066)
conditions-used: GH3.TRE-Luc cells, TR agonist luciferase, 24 h; series mostly up to 83.9 µM
Results filed as inconclusive are left out. Activity calls are given as the source filed them. Calls follow the shape of the full dose curve.
assay-metric: outcome

See these solved cases before continuing.
>>> endpoint_result("COC(C)CCO (stereo not drawn)")
"inactive"
>>> endpoint_result("C=CC1CO1 (stereo not drawn)")
"inactive"
>>> endpoint_result("O=C(O)[C@@H]1CSCN1")
"inactive"
>>> endpoint_result("CCOC(=O)[C@H](CCc1ccccc1)N[C@@H](C)C(=O)N1Cc2cc(OC)c(OC)cc2C[C@H]1C(=O)O")
"inactive"
>>> endpoint_result("CCOc1ccc(OCC)c(Cl)c1")
"inactive"

Can you give me outcome for all of these, one by one?
1. CCNCCO
2. O=C(O)CN(CCN(CC(=O)O)CC(=O)O)CCN(CC(=O)O)CC(=O)O
3. CCN1CC(CCN2CCOCC2)C(c2ccccc2)(c2ccccc2)C1=O (stereo not drawn)
4. CC1(C)S[C@@H]2[C@H](NC(=O)C(C(=O)O)c3ccccc3)C(=O)N2[C@H]1C(=O)O (stereo partly drawn)
5. O=S(=O)(O)C(F)(F)F
6. OCCN(CCO)c1ccccc1
7. O=C(O)[C@@H](O)[C@H](O)[C@H](O)[C@@H](O)C(=O)O
8. CC1(C)C(=O)N(Cl)C(=O)N1Br

inactive
inactive
inactive
inactive
inactive
inactive
inactive
inactive

* * *

procedure-details: qHTS assay to identify small molecule agonists or antagonists of the thyroid stimulating hormone receptor (TSHR) signaling pathway - wild type cell line counter screen (AID 1259384)
conditions-used: HEK293 wild type, cAMP HTRF counter-screen, hits give high values; series mostly up to 92.4 µM
Results filed as inconclusive are left out. Active and inactive are the calls of the source. Calls come from the whole dose curve.
assay-metric: cAMP activity change

>>> endpoint_result("CCC/C=C/CO")
"inactive"
>>> endpoint_result("CC(C)(CO)[C@@H](O)C(=O)NCCC(=O)O")
"inactive"
>>> endpoint_result("C[C@]12CCC(=O)C=C1CC[C@@H]1[C@@H]2CC[C@@]2(C)[C@H]1CC[C@]2(O)C(=O)CO")
"inactive"
>>> endpoint_result("O=C1CCCc2ccccc21")
"inactive"
>>> endpoint_result("COC(=O)C(C)O (stereo not given)")
"inactive"

Give cAMP activity change for each listed item.
1. Cc1ccc(C)c(N)c1
2. C[C@]12C(=O)OC(=O)[C@H]1[C@H]1C=C[C@@H]2C1
3. CCCC1CCC(=O)O1 (stereo not given)
4. N#Cc1ccc(C(c2ccc(C#N)cc2)n2cncn2)cc1
5. Oc1ccccc1F

1. inactive
2. inactive
3. inactive
4. inactive
5. inactive
